# Tested on: KM12 colon
# assay method text: NCI tumour cell line growth inhibition, 48 h; in the data active means GI50 below about 0.43 µM; inactive means the rest
Select the matching outcome among active, inactive

Use the examples below as a reference point.
q: Field: outcome | Entry: `COc1ccc(N(C)c2nc(N)nc3sc4c(c23)CCCC4)cc1`
a: active

q: For this compound, state the assay outcome: `CC[C@H](C)[C@H](NC(=O)CN(C)C)C(=O)N(C)[C@H](C[C@@H](OC(C)=O)c1nc(C(=O)NC23CC(C(=O)OC)(C2)C3)cs1)C(C)C`
a: inactive

q: Could you kindly confirm the outcome this assay logged for `CC(=O)[O][Hg][c]1c(C)c(C)cc(C)c1C` ?
a: inactive

Further cases:
q: For `O=C(CC(Cl)=C(Cl)Cl)c1cccc(Cl)c1Cl` , what call appears in the results of this test?
a: inactive

q: Per the assay record, what outcome was assigned to `C#CCOc1ccc2ncnc(Nc3ccc(NC(=O)C=C)cc3)c2c1` ?
a: inactive

q: Per the assay record, what outcome was assigned to `CN1CSC(=S)N(Cc2ccccc2)C1` ?
a: inactive

Reference source for all entries: PubChem BioAssay (NCI)
